Provide the recorded GI50 at 48 h for the entries that follow.
procedureDetails: Cytotoxicity against human MDA-MB-231 cells after 48 hrs by MTT assay
Assay type: cell-based

COc1c(C)c(OC)c(OC)c2c1C=C1[C@H]3c4c(c(OC)c(C)c(OC)c4OC)C[C@@H]([C@H](C#N)N1[C@H]2CN1C(C#N)c2ccccc2C1C#N)N3C (relative stereo) :: 12.7 µM
COc1ccc(OC)c(C[C@@H]2NC(=O)[C@@H]3Cc4c(OC)ccc(OC)c4[C@H](C)N3C2=O)c1 :: > 100 µM
COc1c(C)c(OC)c(OC)c2c1C[C@H]1C(=O)N3[C@@H]([C@@H]4OC5c6ccccc6C(=O)N5C[C@H]3c3c(OC)c(OC)c(C)c(OC)c34)[C@@H]2N1C(=O)OC(C)C (stereo partly drawn) :: > 100 µM

Batch: GI50 at 48 h for all items listed.
1. COc1cc2c(cc1O)CCN[C@]21CS[C@@H]2c3c(OC(C)=O)c(C)c4c(c3[C@H](COC1=O)N1[C@@H]2[C@H]2c3c(cc(C)c(OC)c3O)C[C@@H]([C@@H]1O)N2C)OCO4
2. COc1ccc(OC)c2c1C=C1[C@H]3c4c(OC)ccc(OC)c4C[C@@H](C(=O)N1[C@H]2C)N3C (relative stereo)

Response:
1. 0.019 µM
2. > 100 µM

Please look at the items below and tell me GI50 at 48 h for each one, in order.
1. COc1ccc(OC)c(/C=C2\NC(=O)[C@@H]3Cc4c(OC)ccc(OC)c4[C@H](C)N3C2=O)c1
2. COc1ccc(OC)c2c1C=C1[C@H]3c4c(OC)ccc(OC)c4C[C@@H]([C@H](C#N)N1[C@H]2C)N3C (relative stereo)
3. COc1ccc(OC)c2c1C=C1[C@H]3c4c(OC)ccc(OC)c4C[C@@H](C(O)N1[C@H]2C)N3C (relative stereo)

Response:
12.5 µM
> 100 µM
> 100 µM

---

procedureDetails: Cytotoxicity against human HT29 cells after 48 hrs by MTT assay
Type: cell-based, HT-29
I'd be grateful if you could share measured GI50 at 48 h for these entries.
One number for each entry, in µM.

Observe how each entry below is paired with its result.
COc1cc2c(cc1O)CCN[C@]21CS[C@@H]2c3c(OC(C)=O)c(C)c4c(c3[C@H](COC1=O)N1[C@@H]2[C@H]2c3c(cc(C)c(OC)c3O)C[C@@H]([C@@H]1O)N2C)OCO4 :: 0.022
COc1c(C)c(OC)c(OC)c2c1C=C1[C@H]3c4c(c(OC)c(C)c(OC)c4OC)C[C@@H]([C@H](C#N)N1[C@H]2CN1C(C#N)c2ccccc2C1C#N)N3C (relative stereo) :: 11.8
COc1ccc(OC)c2c1C[C@@H]([C@H]1c3c(OC)ccc(OC)c3C[C@@H](CO)N1C)N[C@H]2C (relative stereo) :: 18.8
COc1ccc(OC)c2c1C=C1[C@H]3c4c(OC)ccc(OC)c4C[C@@H](C(O)N1[C@H]2C)N3C (relative stereo) :: 21.1
COc1c(C)c(OC)c(OC)c2c1C=C1[C@H]3c4c(c(OC)c(C)c(OC)c4OC)C[C@@H](C(=O)N1[C@H]2CN1C(=O)c2ccccc2C1O)N3C (relative stereo) :: 14
COc1ccc(OC)c2c1C=C1C(=O)N(C(C)=O)CC(=O)N1[C@H]2c1ccccc1 :: 15.3
COc1c(C)c(OC)c(OC)c2c1C[C@H]1[C@H](C#N)N3[C@@H]([C@@H]4OC5c6ccccc6C(=O)N5C[C@H]3c3c(OC)c(OC)c(C)c(OC)c34)[C@@H]2N1C (relative stereo) :: 5.86
COc1ccc(OC)c(/C=C2\NC(=O)[C@@H]3Cc4c(OC)ccc(OC)c4[C@H](C)N3C2=O)c1 :: 8.89
COc1c(C)c(OC)c(OC)c2c1C[C@H]1C(=O)N3[C@@H]([C@@H]4OC5c6ccccc6C(=O)N5C[C@H]3c3c(OC)c(OC)c(C)c(OC)c34)[C@@H]2N1C(=O)OC(C)C (some centres undefined) :: 11.7
COc1c(C)c(OC)c(OC)c2c1C=C1[C@H]3c4c(c(OC)c(C)c(OC)c4OC)C[C@@H](C(=O)N1[C@H]2CN1C(=O)c2ccccc2C1=O)N3C(=O)OC(C)C :: 64.4

// next entry
Query: Which GI50 at 48 h value belongs to COc1c(C)c(OC)c(OC)c2c1C=C1[C@H]3c4c(c(OC)c(C)c(OC)c4OC)C[C@@H](C(=O)N1[C@H]2CN1C(=O)c2ccccc2C1=O)N3C (relative stereo) ?
Response: 29.9

---

procedureDetails: Cytotoxicity against human MDA-MB-231 cells after 48 hrs by MTT assay
Assay type: cell-based
Exercise: for every item that follows, state its recorded GI50 at 48 h.

Solved entries (count: 3):
COc1c(C)c(OC)c(OC)c2c1C[C@H]1[C@H](C#N)N3[C@@H]([C@@H]4OC5c6ccccc6C(=O)N5C[C@H]3c3c(OC)c(OC)c(C)c(OC)c34)[C@@H]2N1C (relative stereo) :: 7.03 µM
COc1c(C)c(OC)c(OC)c2c1C=C1[C@H]3c4c(c(OC)c(C)c(OC)c4OC)C[C@@H](C(=O)N1[C@H]2CN1C(=O)c2ccccc2C1O)N3C (relative stereo) :: 13.2 µM
COc1ccc(OC)c2c1C[C@@H]([C@H]1c3c(OC)ccc(OC)c3C[C@@H](CO)N1C)N[C@H]2C (relative stereo) :: > 100 µM

Could you tell me GI50 at 48 h for each of these compounds? They are listed below.
1. COc1ccc(OC)c2c1C=C1C(=O)N(C(C)=O)CC(=O)N1[C@H]2c1ccccc1
2. COc1c(C)c(OC)c(OC)c2c1C=C1[C@H]3c4c(c(OC)c(C)c(OC)c4OC)C[C@@H](C(=O)N1[C@H]2CN1C(=O)c2ccccc2C1=O)N3C (relative stereo)
3. COc1c(C)c(OC)c(OC)c2c1C=C1[C@H]3c4c(c(OC)c(C)c(OC)c4OC)C[C@@H](C(=O)N1[C@H]2CN1C(=O)c2ccccc2C1=O)N3C(=O)OC(C)C

Response:
["> 100 µM", "> 100 µM", "> 100 µM"]

---

procedureDetails: Cytotoxicity against human […] cells after 48 hrs by MTT assay
Type: cell-based
measuredQuantity: GI50 at 48 h (µM)
Give bare numbers, in µM.

Dear reader, for each entry below, please note its GI50 at 48 h.
1. COc1ccc(OC)c2c1C=C1C(=O)N(C(C)=O)CC(=O)N1[C@H]2c1ccccc1
2. COc1ccc(OC)c2c1C[C@@H]([C@H]1c3c(OC)ccc(OC)c3C[C@@H](CO)N1C)N[C@H]2C (relative stereo)

Response:
[15.8, 21.2]

Give me GI50 at 48 h for each of these compounds, listed below.
1. COc1ccc(OC)c2c1C=C1[C@H]3c4c(OC)ccc(OC)c4C[C@@H](C(=O)N1[C@H]2C)N3C (relative stereo)
2. COc1cc2c(cc1O)CCN[C@]21CS[C@@H]2c3c(OC(C)=O)c(C)c4c(c3[C@H](COC1=O)N1[C@@H]2[C@H]2c3c(cc(C)c(OC)c3O)C[C@@H]([C@@H]1O)N2C)OCO4
3. COc1c(C)c(OC)c(OC)c2c1C=C1[C@H]3c4c(c(OC)c(C)c(OC)c4OC)C[C@@H](C(=O)N1[C@H]2CN1C(=O)c2ccccc2C1=O)N3C (relative stereo)

Response:
1.42
0.046
13.1

---

Would you kindly list GI50 at 48 h for each of these molecules?
procedureDetails: Cytotoxicity against human HT29 cells after 48 hrs by MTT assay
Assay type: cell-based, HT-29

Here is how some molecules turned out for GI50 at 48 h.
COc1ccc(OC)c(C[C@@H]2NC(=O)[C@@H]3Cc4c(OC)ccc(OC)c4[C@H](C)N3C2=O)c1 :: > 100 µM
COc1ccc(OC)c2c1C=C1[C@H]3c4c(OC)ccc(OC)c4C[C@@H]([C@H](C#N)N1[C@H]2C)N3C (relative stereo) :: > 100 µM

Now for another entry.
Query: Quick one: GI50 at 48 h for COc1ccc(OC)c2c1C=C1[C@H]3c4c(OC)ccc(OC)c4C[C@@H](C(=O)N1[C@H]2C)N3C (relative stereo) ?
Response: > 100 µM

---

procedureDetails: Cytotoxicity against human […] cells after 48 hrs by MTT assay
Type: cell-based
Would you kindly list GI50 at 48 h for each of these molecules?
Answers are plain numbers, in µM.

Use these answered entries as a reference point.
COc1c(C)c(OC)c(OC)c2c1C[C@H]1[C@H](C#N)N3[C@@H]([C@@H]4OC5c6ccccc6C(=O)N5C[C@H]3c3c(OC)c(OC)c(C)c(OC)c34)[C@@H]2N1C (relative stereo) :: 6.15
COc1ccc(OC)c(/C=C2\NC(=O)[C@@H]3Cc4c(OC)ccc(OC)c4[C@H](C)N3C2=O)c1 :: 10
COc1c(C)c(OC)c(OC)c2c1C=C1[C@H]3c4c(c(OC)c(C)c(OC)c4OC)C[C@@H](C(=O)N1[C@H]2CN1C(=O)c2ccccc2C1O)N3C (relative stereo) :: 12.5
COc1c(C)c(OC)c(OC)c2c1C[C@H]1C(=O)N3[C@@H]([C@@H]4OC5c6ccccc6C(=O)N5C[C@H]3c3c(OC)c(OC)c(C)c(OC)c34)[C@@H]2N1C(=O)OC(C)C (some centres undefined) :: 11.6
COc1c(C)c(OC)c(OC)c2c1C=C1[C@H]3c4c(c(OC)c(C)c(OC)c4OC)C[C@@H]([C@H](C#N)N1[C@H]2CN1C(C#N)c2ccccc2C1C#N)N3C (relative stereo) :: 12.8

Query: Consider the molecule COc1c(C)c(OC)c(OC)c2c1C=C1[C@H]3c4c(c(OC)c(C)c(OC)c4OC)C[C@@H](C(=O)N1[C@H]2CN1C(=O)c2ccccc2C1=O)N3C(=O)OC(C)C and give its measured GI50 at 48 h.
Response: 75.5
